Reference source: PubChem BioAssay AID1963875

- System: KRAS-mutant PDC complex spheroid viability
- assaySummary: Anticancer human tumor 186277-243-T-J2-PDC patient-derived colon adenocarcinoma cell line growth inhibition [KRAS2]
- conditionSet: curve of first compound; second compound 0.1 µM
reportedMetric: IC50 (µM)
Report the figure in µM without appending any unit label.

{"molecule": "COc1cc2nccc(Oc3ccc(NC(=O)C4(C(=O)Nc5ccc(F)cc5)CC4)cc3)c2cc1OC + CC1OCC2(CCN(c3cnc(Sc4ccnc(N)c4Cl)c(N)n3)CC2)C1N", "reportedMetric": "IC50", "valueUnit": "µM", "recordedNumber": 1.98}

Please fill in: IC50 reported for CC1(C)CCC(CN2CCN(c3ccc(C(=O)NS(=O)(=O)c4ccc(NCC5CCOCC5)c([N+](=O)[O-])c4)c(Oc4cnc5[nH]ccc5c4)c3)CC2)=C(c2ccc(Cl)cc2)C1 + CC1OCC2(CCN(c3cnc(Sc4ccnc(N)c4Cl)c(N)n3)CC2)C1N = 2.27
